Provenance of the data: PubChem BioAssay (NCI)

- System: SR leukemia
- run_description: NCI-60 one-dose screen, 48 h (100 = growth as untreated, 0 = no growth, -100 = all killed)
- conditions: 10 µM unless noted
The panel holds about 83,000 compounds, 20% with a hit somewhere; the sample as a whole holds those more often.
Criterion: growth strictly less than 80%. Met: 1. Not met: 0.

Look over these answered cases.
Asked: Take the compound COc1ccc(C(=O)c2cc(C(C)=O)c3c(C)cc(C)cn23)cc1 and say whether its growth is less than 80%.
Given back: 1

Asked: Take the compound COc1ccc(NC(=O)Cn2c(/C=C/c3cccc(OC)c3)nc3ccccc3c2=O)cc1 and say whether its growth is less than 80%.
Given back: 1

Asked: Take the compound O=C1c2cccc3c(N4CCN(c5ccccc5)CC4)ccc(c23)C(=O)N1c1cccc(-c2nn(-c3ccccc3)cc2-c2nc3ccccc3s2)c1 and say whether its growth is less than 80%.
Given back: 0

Now take the following compound into account.
Asked: Take the compound CN1C(=O)/C(=C\C(=O)c2cc3ccccc3oc2=O)c2ccccc21 and say whether its growth is less than 80%.
Given back: 1
